- TARGET SYSTEM: T1, His-tagged ECD of human 4-1BB (human, UniProt Q07011 24-184)
- T1 construct: also called hu4-1BB; 4-1BB ECD; not shown: His tag
- ASSAY DETAILS: SPR (Biacore), captured antibody, His-tagged ECD analyte
- Experimental: The binding kinetics of the 4-1BB antibodies for target proteins were determined by using a Biacore T200 surface plasmon resonance system (BlAcore, GE Healthcare, Piscataway, N.J.). […]
Entries and their measured kon follow.
Give the value, in units of M⁻¹ s⁻¹, as a plain number.

QUERY: Look at this binder and give its reported kon. hu107-1-hIgG4 (antibody, V domains shown, Human IgG4 constant region with the S228P mutation; also called hu107.1x.1x) VH: EVQLVQSGAEVKKPGSSVKVSCKASDYTFNDYWVSWVRQAPGQGLEWIGEIYPNSGATNFNGKFRGRATLTVDNSASTAYMELSSLRSEDTAVYYCTREYTRDWFAYWGQGTLVTVSS VL: DVVLTQSPLSLPVTLGQPASISCRSSQSLLDSDGNTYLYWFQQRPGQSPRRLIYLVSNLGSGVPDRFSGSGSGTDFTLKISRVEAEDVGVYYCMQPTHAPYTFGQGTKLEIK
RESULT: 140000

***
QUERY: Look at this binder and give its reported kon. 20H4.9-hIgG4 (antibody, V domains shown) VH: QVQLQQWGAGLLKPSETLSLTCAVYGGSFSGYYWSWIRQSPEKGLEWIGEINHGGYVTYNPSLESRVTISVDTSKNQFSLKLSSVTAADTAVYYCARDYGPGNYDWYFDLWGRGTLVTVSS VL: EIVLTQSPATLSLSPGERATLSCRASQSVSSYLAWYQQKPGQAPRLLIYDASNRATGIPARFSGSGSGTDFTLTISSLEPEDFAVYYCQQRSNWPPALTFGGGTKVEIKR
RESULT: 420000

QUERY: Look at this binder and give its reported kon. hu106-7-hIgG4 (antibody, V domains shown, Human IgG4 constant region with the S228P mutation; also called hu106.1y.3x) VH: EVQLVESGGGLVQPGGSLRLSCAASGYTFTSYYIYWVRQAPGKGLEWIGNIWPGNGGTFYGEKFMGRATFSADTSKNTAYLQMNSLRAEDTAVYYCARRPDYSGDDYFDYWGQGTLVTVSS VL: SVELTQPPSVSVSPGQTARITCKLNSGNIGSYYVHWYQQKPGQAPVTMIYRDDKRPDGIPERFSGSSDSSSNSAFLTISGVQAEDEADYYCHSYDSTITPVFGGGTKLTVL
RESULT: 110000
